tested on: G-clamp-N3 (biotin conjugate); assay: pull-down binding Z-score (relative to library population); higher = stronger binding; settings: RNA library: Library-1 (pre-miRNA loops + repeats)
Provide the recorded pull-down binding Z-score for the entries that follow.
Number only, please.

// query Fill in the recorded pull-down binding Z-score for this sequence, with G-clamp-N3 (biotin conjugate) as test system: GGACUUGCGGUUCA [hsa-mir-8057]
// result -1.11

// query Find pull-down binding Z-score (G-clamp-N3 (biotin conjugate)) for the entry CAUGAGCCCUUUGGAAAGGUCUCGUG [hsa-mir-4711]
// result -0.633

// query Lab request: please report pull-down binding Z-score under test system G-clamp-N3 (biotin conjugate) for ACAGUGGCCACAUCUCCAC [hsa-mir-1184-3_1184-2_1184-1]
// result -1.28

// query Form: Entry = CAACAGUUCUGUAGCGCAAUUGUG [hsa-mir-203a] | System = G-clamp-N3 (biotin conjugate) | pull-down binding Z-score = ____
// result 0.267

// query Identify the measured pull-down binding Z-score of GGAGAGGAUCCACCUGUCCUGUCC [hsa-mir-6165] for G-clamp-N3 (biotin conjugate).
// result 0.202

// query Under G-clamp-N3 (biotin conjugate): pull-down binding Z-score value of AUUCUGGACACCAG [hsa-mir-147b] ?
// result -0.497

// query Missing value: pull-down binding Z-score, G-clamp-N3 (biotin conjugate), entry UGCCAUUAAAAGUAAUGGCA [hsa-mir-548i-3_548i-2_548i-1] . Fill in?
// result 1.22

// query Record GUGGAAGUGCCCACUGGUUCCA [hsa-mir-194-2] : what is its pull-down binding Z-score with G-clamp-N3 (biotin conjugate)?
// result -0.472

// query Find pull-down binding Z-score (G-clamp-N3 (biotin conjugate)) for the entry CUGGGGUUGGAAUGUGACCCCA [hsa-mir-4654]
// result -0.709

// query State its pull-down binding Z-score on G-clamp-N3 (biotin conjugate): CCUGUAUGUCUCCCCGCAGCACCGUCAUCGU [hsa-mir-6774]
// result -1.39

// query Value wanted: pull-down binding Z-score (G-clamp-N3 (biotin conjugate)) of entry GCUGCAGGCAAAGCUGGGG [hsa-mir-711]
// result -0.426

###

test system: TO-N3 (biotin conjugate); assay: pull-down binding Z-score (relative to library population); higher = stronger binding; conditions: RNA library: Library-2
reported_property: pull-down binding Z-score
Keep the answer to the number alone.

// query Please report the recorded pull-down binding Z-score for UGUACUUGGAUUGGCUGCAAUCAUGCAAUUGUUUUUCAGCUAUUUUGCAGUACA [SHAPE_invivo_SARS-CoV-2_Motif_149] .
// result -0.78

// query Which value of pull-down binding Z-score has been reported for UUAAACACGCUUGUUAAACAACUUAGCUCCAAUUUUGGUGCAAUUUCAAGUGUUUUAA [SHAPE_invivo_SARS-CoV-2_Motif_457] in the records?
// result 0.301

// query Recorded pull-down binding Z-score for CUCUAGACUCUAUUAUAGUUUCCUGAG [hsa-mir-558] , please?
// result -0.751

// query I would be grateful if you could share the reported pull-down binding Z-score for GAAGGUCUUAAUGACAACCUUC [SHAPE_invitro_SARS-CoV-2_Motif_33] .
// result -1.28

// query I would be grateful if you could share the reported pull-down binding Z-score for UAGCUUGUUUUGUGCUUGCUG [SHAPE_invivo_SARS-CoV-2_Motif_507] .
// result -0.0778

// query Can you look up the measured pull-down binding Z-score of ACACACACCAGACUAUGGAAGCCAGUGU [hsa-mir-147a] for me?
// result -0.528

// query Could you share which pull-down binding Z-score value was measured for UCACAGUUGGUUUCUGACACGUGG [hsa-mir-4535] ?
// result 0.305

// query Any idea what pull-down binding Z-score was measured for AGUCCUGUAAUUAGAUCUCAGGACU [hsa-mir-625] ?
// result -0.817

// query Fill blank: measured pull-down binding Z-score of the sequence AGAAUUACUUAUCUGAGCCAAAGUAAUUCA [hsa-mir-1297] is ____.
// result 0.386

###

system: TO-3-N3 (biotin conjugate); assay: pull-down binding Z-score (relative to library population); higher = stronger binding; details: RNA library: Library-2
reported_property: pull-down binding Z-score
Please respond with just the number, no unit label.

// query Consider the sequence shown here: UCAUAACAGAUGCGCAAACAGGUUCAUCUAAGUGUGUGUGUUCUGUUAUUGA [SHAPE_invivo_SARS-CoV-2_Motif_383] What is its recorded pull-down binding Z-score?
// result -0.657

// query Fill blank: measured pull-down binding Z-score of the sequence GCGCUGCCAGAAACUGGCAAGCGC [bulge-A] is ____.
// result -0.289

// query Consider the sequence shown here: UGAGUGCCGACUGGCGCCUG [hsa-mir-4750] What is its recorded pull-down binding Z-score?
// result -0.164

// query Could you share which pull-down binding Z-score value was measured for CGCUAGUAGUGGCG [hsa-mir-3960] ?
// result -0.152

// query Reported pull-down binding Z-score, sequence CCGGGCGCUGCUCUGACCCCUCGU [hsa-mir-187] : ____
// result 0.166

// query Name the recorded pull-down binding Z-score for `AACAUUAACCUCCACACGCAAGUUGUGGACAUGUCAAUGACAUAUGGACAACAGUUUGGUCCAACUUAUUUGGAUGGAGCUGAUGUU` .
// result -1

// query pull-down binding Z-score lookup needed for AGCAGUACCAGACGGUUCUGUGG [hsa-mir-3198-1] , thanks.
// result -0.321

// query What does the data say about its pull-down binding Z-score? Entry: CAAGGCUAUUGAUGGUGGUGUCACUCGUGACAUAGCAUCUACAGAUACUUG [SHAPE_invivo_SARS-CoV-2_Motif_176]
// result -0.614

// query Can you share its pull-down binding Z-score? I mean this sequence: CCGACUCUGAGUAUGAUAGAAGUC [hsa-mir-148a]
// result 0.905

// query Field request: pull-down binding Z-score | item: UGCCAUUAAAAGUAAUGGCA [hsa-mir-548i-3_548i-2_548i-1]
// result 0.489

###

tested on: TO-3-N3 (biotin conjugate); assay: pull-down binding Z-score (relative to library population); higher = stronger binding; details: RNA library: Library-2
reported_property: pull-down binding Z-score
Output spec: single numeric token, no unit.

// query I am curious: what pull-down binding Z-score value has been reported for GCGCAGCCAGAAACUGGCCGCGC [mismatch-AC] ?
// result -0.43

// query For the sequence shown here, CAAUCACAUGUAAUUAGGUGUGAUUG [hsa-mir-510] , give the reported pull-down binding Z-score.
// result -0.789

// query Find the recorded pull-down binding Z-score belonging to CUUGCAGAAUUAAUGGAAUGCUG [hsa-mir-676] and report it.
// result 0.253

// query Find the recorded pull-down binding Z-score belonging to `GACUUCAGUAACUCAGGUUCUGAUGUU` and report it.
// result -0.751

// query Any idea what pull-down binding Z-score was measured for `UAGUACAACAGGAGUCACCUUUUGUUAUGAUGUCAGCACCACCUGCUCAGUAUGAACUUAAGCAUGGUACAUUUACUUGUGCUA` ?
// result -0.521

// query Quick check: pull-down binding Z-score of GAUGUUUCUGCCAGUUUAGCGUC [hsa-mir-505] ?
// result 0.0284

###

test system: TO-3-N3 (biotin conjugate); assay: pull-down binding Z-score (relative to library population); higher = stronger binding; conditions: RNA library: Library-2
Param threshold (-0.3) applies to pull-down binding Z-score; output yes (1) when value >= threshold, no (0) when value < threshold.

// query Please check the record CUGUGGGUUUUACACUUAAAAACACAG [DMSMaPseq_invitro_SARS-CoV-2_Motif_239] and state if its pull-down binding Z-score is at or above -0.3.
// result yes (1)

// query Kindly determine if pull-down binding Z-score recorded for GGGCCACUGCCAGAAGACAAUGAACCAAGUGGUUAUGCCC [IAV_invivo_PB1_2_Motif_5+IAV_invivo_PB1_2_Motif_5] is above or exactly -0.3.
// result no (0)

// query In plain terms: is recorded pull-down binding Z-score at least -0.3 for CGAGUCUGAGCCUUUAAAAGCCACUCU [hsa-mir-1287] ?
// result no (0)

// query Determine whether measured pull-down binding Z-score meets or exceeds -0.3 for GGAAUUGUGUUAAUUGUGAUACAUUCU [SHAPE_invitro_SARS-CoV-2_Motif_150]
// result no (0)

// query Determine whether measured pull-down binding Z-score meets or exceeds -0.3 for UCGCCUAGGGCUCUGAGCAGGGCA [hsa-mir-211]
// result yes (1)

###

tested on: TO-3-N3 (biotin conjugate); assay: pull-down binding Z-score (relative to library population); higher = stronger binding; conditions: RNA library: Library-2
reported_property: pull-down binding Z-score
Number, no unit, nothing else.

// query # input sequence: CCCAUCCGUGGGUGGG [IAV_invivo_NA_6_Motif_4+IAV_invivo_NA_6_Motif_4] ; wanted: its pull-down binding Z-score
// result -0.525

// query Record request: pull-down binding Z-score value, item GGGCCUCCCUGUUCUCAGCGGUCC [IAV_invivo_PA_3_Motif_11+IAV_invivo_PA_3_Motif_11]
// result -0.00636

// query Reported pull-down binding Z-score for GUCUUUCCAGGGGC [IAV_invivo_NP_5_Motif_23+IAV_invivo_NP_5_Motif_23] : what is it?
// result -0.313

// query I am curious: what pull-down binding Z-score value has been reported for GGGUCAGUGGCAGAGCCAGGCAGAUGCUGACCC [hsa-mir-6832] ?
// result 0.349

// query Can you share its pull-down binding Z-score? I mean this sequence: GACAGGCUGGCCUCUGGAUGACCUGC [hsa-mir-5189]
// result 1.18

// query Quick check: pull-down binding Z-score of CCUUUGUGAGCAGUGUGACCCAAGGCCUGUGGACAGGG [hsa-mir-555] ?
// result -0.0854

// query If you can, please state the reported pull-down binding Z-score value of GCAUACAGUCGCUACAGGAUUGGCAACUAUAAAUUAAACACAGACCAUUCCAGUAGCAGUGACAAUAUUGC [SHAPE_invivo_SARS-CoV-2_Motif_513] .
// result -0.0312

// query Which measured pull-down binding Z-score value corresponds to UUGAGGGACAUGGUUAAUGGAAUUGUCUCA [hsa-mir-342] ?
// result 0.338

These data points were gathered from the supplement of paper PMC11865577.
